Target: human IL-23R (Homo sapiens, UniProt Q5VWK5)
recorded metric: pKi
Numbers only, as −log10 of the molar value.

Please give the measured pKi for this molecule: CC(C)C[C@]1(C)NC(=O)[C@H](Cc2ccc3ccccc3c2)NC(=O)[C@H](Cc2ccc(OCCN)cc2)NC(=O)[C@@H]2CSCC(=O)CSC[C@H](NC(=O)[C@H](CO)NC(=O)Cc3ccc(cc3)CNC(=O)CC[C@@H](C(=O)N[C@@H](CO)C(N)=O)NC1=O)C(=O)N[C@@H](Cc1c[nH]c3ccccc13)C(=O)N[C@@H](CCC(N)=O)C(=O)N2 [Ref 81, reference compound]
9.50

====

Experiment: Peptide stability in simulated gastric fluid (SGF)
Assay type: in vitro ADME
Details: pig, simulated gastric fluid, pH 1.2, SGF (% remaining 1 h)
*1 amine or outer side, *2 acyl side, *3 side chain or, on linkers, in order; H or OH if unused. Where a SMILES comes first, the peptide text is derived from it. Bridges are numbered along the chain shown (N, C = ends). [ ]: non-standard residue; d: D form. 2Nal = N[C@@H](Cc1ccc2ccccc2c1)C(=O)O; AEF = NCCOc1ccc(C[C@H](N)C(=O)O)cc1; X1 = O=C(Cc1ccc(CN[*:1])cc1)[*:2]; 3Pal = N[C@@H](Cc1cccnc1)C(=O)O; αMeL = CC(C)C[C@](C)(N)C(=O)O; CH2COCH2 = O=C(C[*:1])C[*:2]; Dab = NCC[C@H](N)C(=O)O
recorded metric: remaining at 1 h, 10 µM (%)
Give bare numbers, in %.

# remaining at 1 h, 10 µM lookup, item CC(C)C[C@]1(C)NC(=O)[C@H](Cc2ccc3ccccc3c2)NC(=O)[C@H](Cc2ccc(OCCN)cc2)NC(=O)[C@@H]2CSCC(=O)CSC[C@H](NC(=O)[C@H](CO)NC(=O)Cc3ccc(cc3)CNC(=O)CC[C@@H](C(=O)N[C@@H](CCN)C(=O)N[C@@H](Cc3cccnc3)C(N)=O)NC1=O)C(=O)N[C@@H](Cc1c[nH]c3ccccc13)C(=O)N[C@@H](CCC(N)=O)C(=O)N2 [Ref 120, reference compound] ([X1]SCWQC[AEF][2Nal][αMeL]E[Dab][3Pal]-NH2; linker 3-6 via CH2COCH2; lactam N-10)
84
